Data origin: paper PMC4012445

Hi there, I'd appreciate the recorded pIC50 for every entry that follows.
# TEST_PROTOCOL: in vitro
# EXPERIMENTAL_SETUP: human, HepG2 hepatocellular carcinoma cells
pIC50: −log10 of the molar value.

compound=CC(C)=CCC/C(C)=C/CC/C(C)=C/Cc1c(O)cc(C)c(C=O)c1O measured_quantity=pIC50 observed_measurement="< 4.30"
compound="CC1CCC2C(C)(C)C(O)CCC2(C)C12Cc1c(O)cc3c(c1O2)CN(C1OCc2cc(O)c4c(c21)OC1(C4)C(C)CCC2C(C)(C)C(O)CCC21C)C3=O (stereo not drawn)" measured_quantity=pIC50 observed_measurement=4.85

Shifting focus to the compound that follows.
Exercise: Please look up its pIC50: C[C@H]1CC[C@@H]2C(C)(C)[C@@H](O)[C@H](O)C[C@@]2(C)[C@]12Cc1c(O)cc3c(c1O2)CN(CCCCC(C(=O)O)N1Cc2c(cc(O)c4c2O[C@@]2(C4)[C@@H](C)CC[C@@H]4C(C)(C)[C@@H](O)[C@@H](O)C[C@]42C)C1=O)C3=O (stereo partly drawn)
Solution: < 4.30
